meta.source: patent US20180320217A1

Listed below: Formation of formazan dyes, absorbance, Means 8 h values for each entry.
Test system: diaphorase
experiment_summary: Formation of formazan dyes: NADH, diaphorase and malate (TABLE 8)
Type: biochemical, Clostridium kluyveri
condition_parameters: NADH, diaphorase and malate; 8 h
// print number alone

Solved entries (count: 4):
>>> reported_value("Cc1nc(-[n+]2nc(-c3cccc(OCC(=O)O)c3)nn2-c2ccc(S(=O)(=O)[O-])cc2)sc1C")
3.17
>>> reported_value("COc1cc([N+](=O)[O-])c(S(=O)(=O)[O-])cc1-n1nc(C(=O)Nc2ccccc2)n[n+]1-c1cc(S(=O)(=O)O)c([N+](=O)[O-])cc1OC")
2.33
>>> reported_value("O=[N+]([O-])c1ccc(-[n+]2nc(-c3ccc(S(=O)(=O)[O-])cc3S(=O)(=O)[O-])nn2-c2ccc(I)cc2)cc1.[Na+]")
2.48
>>> reported_value("COc1cc(-c2ccc(-[n+]3nc(-c4ccc(C(=O)N(CCS(=O)(=O)[O-])CCS(=O)(=O)[O-])cc4)nn3-c3nc4ccccc4s3)c(OC)c2)ccc1-[n+]1nc(-c2ccc(C(=O)N(CCS(=O)(=O)[O-])CCS(=O)(=O)[O-])cc2)nn1-c1nc2ccccc2s1.[Na+].[Na+]")
2.36

Now consider a different molecule.
Task item: Entry under review: COc1cc([N+](=O)[O-])ccc1-[n+]1nc(-c2ccc(S(=O)(=O)[O-])cc2S(=O)(=O)[O-])nn1-c1ccc([N+](=O)[O-])cc1.[Na+] . Reported Formation of formazan dyes, absorbance, Means 8 h?
Reply: 3.54

====

Tested on: oral lavage
experiment_summary: Formation of formazan dyes: oral lavage, malate and diaphorase (TABLE 12)
Format: biochemical, human
condition_parameters: oral lavage, malate and diaphorase; 3 h
Each record here notes measured Formation of formazan dyes, absorbance, Means 3 h.
Reply with just the number.

Answered examples (4):
>>> reported_value("COc1cc(-c2ccc(-[n+]3nc(-c4ccc(C(=O)N(CCS(=O)(=O)[O-])CCS(=O)(=O)[O-])cc4)nn3-c3nc4ccccc4s3)c(OC)c2)ccc1-[n+]1nc(-c2ccc(C(=O)N(CCS(=O)(=O)[O-])CCS(=O)(=O)[O-])cc2)nn1-c1nc2ccccc2s1.[Na+].[Na+]")
0.75
>>> reported_value("COc1cc([N+](=O)[O-])c(S(=O)(=O)[O-])cc1-n1nc(C(=O)Nc2ccccc2)n[n+]1-c1cc(S(=O)(=O)O)c([N+](=O)[O-])cc1OC")
0.98
>>> reported_value("Cc1nc(-[n+]2nc(-c3cccc(OCC(=O)O)c3)nn2-c2ccc(S(=O)(=O)[O-])cc2)sc1C")
1.14
>>> reported_value("COc1cc([N+](=O)[O-])ccc1-[n+]1nc(-c2ccc(S(=O)(=O)[O-])cc2S(=O)(=O)[O-])nn1-c1ccc([N+](=O)[O-])cc1.[Na+]")
0.84

Task item: So what's the measured Formation of formazan dyes, absorbance, Means 3 h for this one? O=[N+]([O-])c1ccc(-[n+]2nc(-c3ccc(S(=O)(=O)[O-])cc3S(=O)(=O)[O-])nn2-c2ccc(I)cc2)cc1.[Na+]
Reply: 1.23

====

Tested on: Malate dehydrogenase and diaphorase
experiment_summary: Formation of formazan dyes: Malate dehydrogenase, diaphorase and malate (TABLE 10)
Assay type: biochemical, pig heart
condition_parameters: Malate dehydrogenase, diaphorase and malate; 3 h
Exam item: assign 1 (yes) to entries whose Formation of formazan dyes, absorbance, Means 3 h is below 3 and 0 (no) to entries at or above 3. Note that a value of exactly 3 receives 0 (no).

For orientation, consider the following solved cases.
>>> assigned_category("COc1cc([N+](=O)[O-])ccc1-[n+]1nc(-c2ccc(S(=O)(=O)[O-])cc2S(=O)(=O)[O-])nn1-c1ccc([N+](=O)[O-])cc1.[Na+]")
"1 (yes)"
>>> assigned_category("COc1cc(-c2ccc(-[n+]3nc(-c4ccc(C(=O)N(CCS(=O)(=O)[O-])CCS(=O)(=O)[O-])cc4)nn3-c3nc4ccccc4s3)c(OC)c2)ccc1-[n+]1nc(-c2ccc(C(=O)N(CCS(=O)(=O)[O-])CCS(=O)(=O)[O-])cc2)nn1-c1nc2ccccc2s1.[Na+].[Na+]")
"1 (yes)"

Task item: Is the reported Formation of formazan dyes, absorbance, Means 3 h for COc1cc([N+](=O)[O-])c(S(=O)(=O)[O-])cc1-n1nc(C(=O)Nc2ccccc2)n[n+]1-c1cc(S(=O)(=O)O)c([N+](=O)[O-])cc1OC strictly below 3?
Reply: 1 (yes)

Task item: Does O=[N+]([O-])c1ccc(-[n+]2nc(-c3ccc(S(=O)(=O)[O-])cc3S(=O)(=O)[O-])nn2-c2ccc(I)cc2)cc1.[Na+] have Formation of formazan dyes, absorbance, Means 3 h strictly under 3?
Reply: 1 (yes)

Task item: Would you kindly verify if Formation of formazan dyes, absorbance, Means 3 h of Cc1nc(-[n+]2nc(-c3cccc(OCC(=O)O)c3)nn2-c2ccc(S(=O)(=O)[O-])cc2)sc1C is strictly less than 3?
Reply: 0 (no)
